assay: Tmax in CD-1 mouse at 2 mg/kg, iv by LC-MS analysis; assay type: ADME, organism-based; details: in vivo
Listed here: items and their measured Tmax.
Observable: Tmax (min)

- Nc1n[nH]c2cc(-c3ccc(=O)n(Cc4ccccc4F)c3)ccc12: 4.8
- Nc1n[nH]c2cc(-c3ccc(=O)n(Cc4cccc(Cl)c4)c3)ccc12: 4.8

* * *

test: AUC (0 to t) in CD-1 mouse at 5 mg/kg, po by LC-MS analysis; assay type: ADME, organism-based; set-up: dose 5 mg/kg; details: in vivo
Listed here: items and their measured AUCt.
Observable: AUCt (ng·h/mL)

* Nc1n[nH]c2cc(-c3ccc(=O)n(Cc4cccc(Cl)c4)c3)ccc12 | 2150
* Nc1n[nH]c2cc(-c3ccc(=O)n(Cc4ccccc4F)c3)ccc12 | 517
